# Test system: Plasmodium falciparum Dd2(AZ^R)
# test: [3H]hypoxanthine incorporation antimalarial assay, azithromycin-resistant mutant Dd2(AZ^R)
# Assay type: cell-based
# study_conditions: DD2, 48 h, read-out: IC50 Dd2(AZ^R) 48 h
Attribute: pIC50
// pIC50 is dimensionless: -log10 of concentration (M)

Before answering, review these 3 worked examples.
molecule	observed_measurement
CC[C@H]1OC(=O)[C@H](C)[C@@H](O[C@H]2C[C@@](C)(OC)[C@@H](O)[C@H](C)O2)[C@H](C)[C@@H](O[C@@H]2O[C@H](C)C[C@H](N(C)C)[C@H]2O)[C@](C)(O)C[C@@H](C)CN(C)[C@H](C)[C@@H](O)[C@]1(C)O [Azithromycin, reference compound]	5.47
CC[C@H]1OC(=O)[C@H](C)[C@@H](O[C@H]2C[C@@](C)(OC)[C@@H](O)[C@H](C)O2)[C@H](C)[C@@H](O[C@@H]2O[C@H](C)C[C@H](N(C)C)[C@H]2O)[C@](C)(O)C[C@@H](C)CN(CCCNc2ccnc3cc(Cl)ccc23)[C@H](C)[C@@H](O)[C@]1(C)O [Compound 1]	7.68
CC[C@H]1OC(=O)[C@H](C)[C@@H](O)[C@H](C)[C@@H](O[C@@H]2O[C@H](C)C[C@H](N(C)C)[C@H]2OCCCNc2ccnc3ccccc23)[C@](C)(O)C[C@@H](C)CN[C@H](C)[C@@H](O)[C@]1(C)O [Compound 3]	7.57

// map CC[C@H]1OC(=O)[C@H](C)[C@@H](O[C@H]2C[C@@](C)(OC)[C@@H](O)[C@H](C)O2)[C@H](C)[C@@H](O[C@@H]2O[C@H](C)C[C@H](N(C)C(C)=O)[C@H]2O)[C@](C)(O)C[C@@H](C)CN(CCCNC(=O)Nc2ccc3ccccc3c2)[C@H](C)[C@@H](O)[C@]1(C)O [Compound 4] to recorded pIC50 (system: Plasmodium falciparum Dd2(AZ^R))
7.17

###

# test: Pharmacokinetic studies in CD-1 mice
# study_conditions: Swiss albino CD-1, mouse, whole blood, oral, 12.5 mg·kg^−1, F, fed CD-1 mice, ratio of AUC0-t after PO and IV
test_readout: bioavailability (%)
Reply with just the number (in %).

Quick one: bioavailability for CC[C@H]1OC(=O)[C@H](C)[C@@H](O[C@H]2C[C@@](C)(OC)[C@@H](O)[C@H](C)O2)[C@H](C)[C@@H](O[C@@H]2O[C@H](C)C[C@H](N(C)C)[C@H]2O)[C@](C)(O)C[C@@H](C)CN(CCCNc2ccnc3cc(Cl)ccc23)[C@H](C)[C@@H](O)[C@]1(C)O ?
3.75

###

# test: Pharmacokinetic studies in CD-1 mice
# study_conditions: CD‐1 mice, blood, oral gavage 12.5 mg·kg^−1
Reported DNAUCPO (AUC0−t divided by the dose) values are given for each entry in this list.
Provide the reading as a plain figure in ng·kg·h/mL/mg.

Example compounds with recorded DNAUCPO (AUC0−t divided by the dose):
compound	unit_of_measurement	DNAUCPO (AUC0−t divided by the dose)
CC[C@H]1OC(=O)[C@H](C)[C@@H](O[C@H]2C[C@@](C)(OC)[C@@H](O)[C@H](C)O2)[C@H](C)[C@@H](O[C@@H]2O[C@H](C)C[C@H](N(C)C)[C@H]2O)[C@](C)(O)C[C@@H](C)CN(CCCNc2ccnc3cc(Cl)ccc23)[C@H](C)[C@@H](O)[C@]1(C)O	ng·kg·h/mL/mg	253
CC[C@H]1OC(=O)[C@H](C)[C@@H](O[C@H]2C[C@@](C)(OC)[C@@H](O)[C@H](C)O2)[C@H](C)[C@@H](O[C@@H]2O[C@H](C)C[C@H](N(C)C)[C@H]2O)[C@](C)(O)C[C@@H](C)CN(C)[C@H](C)[C@@H](O)[C@]1(C)O [Azithromycin, reference compound]	ng·kg·h/mL/mg	267
CC[C@H]1OC(=O)[C@H](C)[C@@H](O)[C@H](C)[C@@H](O[C@@H]2O[C@H](C)C[C@H](N(C)C)[C@H]2OCCCNc2ccnc3ccccc23)[C@](C)(O)C[C@@H](C)CN[C@H](C)[C@@H](O)[C@]1(C)O	ng·kg·h/mL/mg	362

Please look at the following compound next.
For the compound shown here, CC[C@H]1OC(=O)[C@H](C)[C@@H](O[C@H]2C[C@@](C)(OC)[C@@H](O)[C@H](C)O2)[C@H](C)[C@@H](O[C@@H]2O[C@H](C)C[C@H](N(C)C(C)=O)[C@H]2O)[C@](C)(O)C[C@@H](C)CN(CCCNC(=O)Nc2ccc3ccccc3c2)[C@H](C)[C@@H](O)[C@]1(C)O , give the reported DNAUCPO (AUC0−t divided by the dose).
0.3

###

# test: Pharmacokinetics in P. falciparum infected and uninfected humanized mice
# study_conditions: NODscidβ2m^−/−, mouse, in vivo, po, 10 mg/kg, t max, uninfected (U) humanized mice, oral 10 mg·kg^−1, mean (SD)
test_readout: Tmax (h)
// return numeric value only (unit: h, not printed)

What Tmax value was documented for this compound, CCN(CC)CCCC(C)Nc1ccnc2cc(Cl)ccc12 (stereo not shown) [Chloroquine, reference compound] ?
1.92

###

# test: Pharmacokinetic studies in CD-1 mice
# study_conditions: CD‐1 mice, after oral administration
The entries below are paired with their reported B/P (ratio of AUC0−t in whole blood and plasma).
The answer should be a number; do not append a unit.

Consider the compound CC[C@H]1OC(=O)[C@H](C)[C@@H](O[C@H]2C[C@@](C)(OC)[C@@H](O)[C@H](C)O2)[C@H](C)[C@@H](O[C@@H]2O[C@H](C)C[C@H](N(C)C)[C@H]2O)[C@](C)(O)C[C@@H](C)CN(CCCNc2ccnc3cc(Cl)ccc23)[C@H](C)[C@@H](O)[C@]1(C)O [Compound 1] and give its measured B/P (ratio of AUC0−t in whole blood and plasma).
14.0

And for CC[C@H]1OC(=O)[C@H](C)[C@@H](O[C@H]2C[C@@](C)(OC)[C@@H](O)[C@H](C)O2)[C@H](C)[C@@H](O[C@@H]2O[C@H](C)C[C@H](N(C)C(C)=O)[C@H]2O)[C@](C)(O)C[C@@H](C)CN(CCCNC(=O)Nc2ccc3ccccc3c2)[C@H](C)[C@@H](O)[C@]1(C)O [Compound 4] ?
0.4

Moving on to CC[C@H]1OC(=O)[C@H](C)[C@@H](O[C@H]2C[C@@](C)(OC)[C@@H](O)[C@H](C)O2)[C@H](C)[C@@H](O[C@@H]2O[C@H](C)C[C@H](N(C)C)[C@H]2O)[C@](C)(O)C[C@@H](C)CN(C)[C@H](C)[C@@H](O)[C@]1(C)O [Azithromycin, reference compound]
2.4

Now the same for CC[C@H]1OC(=O)[C@H](C)[C@@H](O)[C@H](C)[C@@H](O[C@@H]2O[C@H](C)C[C@H](N(C)C)[C@H]2OCCCNc2ccnc3ccccc23)[C@](C)(O)C[C@@H](C)CN[C@H](C)[C@@H](O)[C@]1(C)O [Compound 3]
3.7

###

# System: S. pyogenes 3565
test_readout: MIC

Use these answered entries as a reference point.
molecule	MIC
CC[C@H]1OC(=O)[C@H](C)[C@@H](O[C@H]2C[C@@](C)(OC)[C@@H](O)[C@H](C)O2)[C@H](C)[C@@H](O[C@@H]2O[C@H](C)C[C@H](N(C)C)[C@H]2O)[C@](C)(O)C[C@@H](C)CN(CCCNc2ccnc3cc(Cl)ccc23)[C@H](C)[C@@H](O)[C@]1(C)O	≤ 0.125 µg/mL
CC[C@H]1OC(=O)[C@H](C)[C@@H](O[C@H]2C[C@@](C)(OC)[C@@H](O)[C@H](C)O2)[C@H](C)[C@@H](O[C@@H]2O[C@H](C)C[C@H](N(C)C)[C@H]2O)[C@](C)(O)C[C@@H](C)CN(C)[C@H](C)[C@@H](O)[C@]1(C)O [Azithromycin, reference compound]	≤ 0.125 µg/mL
CC[C@H]1OC(=O)[C@H](C)[C@@H](O)[C@H](C)[C@@H](O[C@@H]2O[C@H](C)C[C@H](N(C)C)[C@H]2OCCCNc2ccnc3ccccc23)[C@](C)(O)C[C@@H](C)CN[C@H](C)[C@@H](O)[C@]1(C)O	> 64 µg/mL

Now, please, on to the next molecule.
Form: Entry = CC[C@H]1OC(=O)[C@H](C)[C@@H](O[C@H]2C[C@@](C)(OC)[C@@H](O)[C@H](C)O2)[C@H](C)[C@@H](O[C@@H]2O[C@H](C)C[C@H](N(C)C(C)=O)[C@H]2O)[C@](C)(O)C[C@@H](C)CN(CCCNC(=O)Nc2ccc3ccccc3c2)[C@H](C)[C@@H](O)[C@]1(C)O | System = S. pyogenes 3565 | MIC = ____
> 64 µg/mL

Reference source: paper PMC9328652
